Biological target: human orexin-2 receptor (Homo sapiens)
Construct: expressed in transfected cells; host or cells: CHO cells (grown under G418 selection)
Sequence (O43614 whole entry): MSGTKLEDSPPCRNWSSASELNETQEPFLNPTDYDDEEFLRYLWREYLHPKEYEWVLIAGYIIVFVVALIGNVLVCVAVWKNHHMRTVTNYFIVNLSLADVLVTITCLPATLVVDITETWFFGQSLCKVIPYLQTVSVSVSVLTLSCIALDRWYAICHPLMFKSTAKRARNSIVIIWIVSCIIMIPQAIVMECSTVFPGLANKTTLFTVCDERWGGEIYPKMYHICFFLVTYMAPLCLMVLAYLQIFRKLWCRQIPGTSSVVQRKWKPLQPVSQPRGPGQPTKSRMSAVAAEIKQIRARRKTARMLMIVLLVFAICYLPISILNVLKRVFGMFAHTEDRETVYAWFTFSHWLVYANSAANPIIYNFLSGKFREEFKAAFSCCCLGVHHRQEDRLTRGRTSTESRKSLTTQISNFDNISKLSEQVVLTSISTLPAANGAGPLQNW
Experiment: FLIPR Ca2+ flux assay, OX2R
Assay type: cell-based
Conditions: OX1R FLIPR / OX2R FLIPR
# Fold Selective annotations
The answer should be written as a number, with no unit following it.

Use these answered entries as a reference point.
| Compound | Fold Selective |
| --- | --- |
| Cc1cc(C)nc(N2CC3CC2CN(C(=O)c2ccc(F)cc2C2CC2)C3)n1 (centres unmarked) [Example 14] | 56 |
| Cc1cc(C)nc(N2CC3CC2CN(C(=O)c2cccnc2OC2CCCC2)C3)n1 (centres unmarked) [Example 38] | 47 |
| Cc1cc(C)nc(N2CC3CC2CN(C(=O)c2ccccc2C2(F)CC2)C3)n1 (centres unmarked) [Example 18] | 58 |

Field: Fold Selective (human orexin-2 receptor (Homo sapiens)). Entry: Cc1cc(C)nc(N2CC3CC2CN(C(=O)c2cccnc2OCC(F)(F)C(F)F)C3)n1 (centres unmarked) [Example 43]
41

Field: Fold Selective (human orexin-2 receptor (Homo sapiens)). Entry: Cc1cc(C)nc(N2CC3CC2CN(C(=O)c2ccccc2-n2ncnn2)C3)n1 (centres unmarked) [Example 19]
44
